Recorded inhibition at 1 µM for the following compounds
Target: PI3Kb (p110β/p85α) (Homo sapiens (Human))
Sequence (P42338 whole entry, species assumed): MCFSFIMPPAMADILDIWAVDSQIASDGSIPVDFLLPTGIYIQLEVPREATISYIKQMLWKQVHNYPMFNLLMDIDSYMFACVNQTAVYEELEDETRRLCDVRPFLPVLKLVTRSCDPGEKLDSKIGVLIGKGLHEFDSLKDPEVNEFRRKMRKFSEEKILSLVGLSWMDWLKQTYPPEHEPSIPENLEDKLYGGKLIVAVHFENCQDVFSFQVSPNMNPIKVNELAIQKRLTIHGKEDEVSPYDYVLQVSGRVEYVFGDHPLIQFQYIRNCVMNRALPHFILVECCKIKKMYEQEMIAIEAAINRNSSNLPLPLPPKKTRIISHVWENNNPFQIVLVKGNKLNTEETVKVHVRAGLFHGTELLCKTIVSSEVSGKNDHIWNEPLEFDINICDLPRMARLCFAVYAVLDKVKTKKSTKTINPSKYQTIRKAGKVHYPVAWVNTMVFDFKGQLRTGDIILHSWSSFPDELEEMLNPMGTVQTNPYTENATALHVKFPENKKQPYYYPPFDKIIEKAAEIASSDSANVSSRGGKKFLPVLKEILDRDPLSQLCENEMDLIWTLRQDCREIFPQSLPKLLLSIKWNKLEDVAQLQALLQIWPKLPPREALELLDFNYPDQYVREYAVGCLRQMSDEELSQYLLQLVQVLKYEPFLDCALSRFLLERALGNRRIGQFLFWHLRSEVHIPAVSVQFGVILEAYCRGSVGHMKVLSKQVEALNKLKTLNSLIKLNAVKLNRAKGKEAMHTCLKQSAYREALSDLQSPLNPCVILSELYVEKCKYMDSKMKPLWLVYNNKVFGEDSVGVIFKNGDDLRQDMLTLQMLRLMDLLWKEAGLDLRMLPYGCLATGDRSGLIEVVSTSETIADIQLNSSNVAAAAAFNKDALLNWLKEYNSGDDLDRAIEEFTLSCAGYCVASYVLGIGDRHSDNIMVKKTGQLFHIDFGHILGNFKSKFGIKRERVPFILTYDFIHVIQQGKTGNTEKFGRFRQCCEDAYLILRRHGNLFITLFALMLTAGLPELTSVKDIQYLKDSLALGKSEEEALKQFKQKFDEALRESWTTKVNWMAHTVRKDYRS
Sequence (P27986 whole entry partner, species assumed): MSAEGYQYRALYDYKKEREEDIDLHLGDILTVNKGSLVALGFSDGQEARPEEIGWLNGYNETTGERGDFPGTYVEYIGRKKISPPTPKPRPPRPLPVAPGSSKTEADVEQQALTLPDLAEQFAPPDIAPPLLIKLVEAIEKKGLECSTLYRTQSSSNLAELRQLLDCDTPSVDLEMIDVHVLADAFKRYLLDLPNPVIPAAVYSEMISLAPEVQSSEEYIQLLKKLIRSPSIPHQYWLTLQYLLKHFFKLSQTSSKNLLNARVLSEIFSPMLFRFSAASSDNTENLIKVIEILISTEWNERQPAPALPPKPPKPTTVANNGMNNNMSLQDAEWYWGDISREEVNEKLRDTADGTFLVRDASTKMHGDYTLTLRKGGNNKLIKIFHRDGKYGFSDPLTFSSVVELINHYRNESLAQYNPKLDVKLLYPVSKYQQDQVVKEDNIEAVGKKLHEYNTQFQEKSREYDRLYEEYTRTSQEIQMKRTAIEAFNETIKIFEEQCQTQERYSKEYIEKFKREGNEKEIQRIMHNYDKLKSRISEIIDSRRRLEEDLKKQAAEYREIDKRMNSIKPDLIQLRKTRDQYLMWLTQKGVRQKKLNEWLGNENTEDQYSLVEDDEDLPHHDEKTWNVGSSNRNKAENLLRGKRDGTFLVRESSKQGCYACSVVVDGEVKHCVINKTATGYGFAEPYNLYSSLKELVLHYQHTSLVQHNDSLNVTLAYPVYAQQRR
Assay: Lipid kinase selectivity panel (Reaction Biology)
Format: biochemical
Details: 1 μM compound, single dose duplicates, 10 μM ATP; read-out: Percent inhibition relative to DMSO control, PI3Kb (p110β/p85α)
// return numeric value only (unit: %, not printed)

Cc1nccc(Nc2cc(-c3cc(N4CCCC[C@@H]4C(F)(F)F)[nH]c(=O)c3)c(C)cn2)n1 : 11

Name the reported inhibition at 1 µM value associated with the compound `O=C(Nc1cc(-c2cc(N3CCCC[C@@H]3C(F)(F)F)[nH]c(=O)c2)c(Cl)cn1)C1CC1`
-5

Try `COC(=O)Nc1cc(-c2cc(-c3cccnc3C(F)(F)F)[nH]c(=O)c2)c(C)cn1` next.
14

Try `Cc1cnc(NC(=O)C2CC2)cc1-c1cc(N2CCCC[C@@H]2C(F)(F)F)[nH]c(=O)c1` next.
-10
